Quick note: these are AC50 numbers for system: D(3) dopamine receptor (Homo sapiens, UniProt P35462); note: assay procedure not described here
Sequence (P35462 whole entry): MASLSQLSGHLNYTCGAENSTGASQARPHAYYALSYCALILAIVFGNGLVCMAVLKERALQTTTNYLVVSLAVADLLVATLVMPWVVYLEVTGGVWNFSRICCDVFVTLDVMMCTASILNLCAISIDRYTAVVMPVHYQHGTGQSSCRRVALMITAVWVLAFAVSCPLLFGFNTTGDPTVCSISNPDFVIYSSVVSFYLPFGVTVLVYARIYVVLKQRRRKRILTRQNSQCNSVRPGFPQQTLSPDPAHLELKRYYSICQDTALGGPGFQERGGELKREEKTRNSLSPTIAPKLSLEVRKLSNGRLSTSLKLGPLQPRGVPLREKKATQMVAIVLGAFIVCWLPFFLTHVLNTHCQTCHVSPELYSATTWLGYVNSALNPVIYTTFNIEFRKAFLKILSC
metric: AC50

compound	observed
CO/N=C(\C(=O)N[C@@H]1C(=O)N2C(C(=O)[O-])=C(C[n+]3cccc4c3CCC4)CS[C@H]12)c1csc(N)n1	> 30 µM
CN(C)c1cc(CNCC(C)(C)C)c(O)c2c1C[C@H]1C[C@H]3[C@H](N(C)C)C(O)=C(C(N)=O)C(=O)[C@@]3(O)C(O)=C1C2=O	27 µM
CC(=N)N1CC[C@H](SC2=C(C(=O)O)N3C(=O)[C@H]([C@@H](C)O)[C@H]3C2)C1	> 300 µM
Nc1ccc(C(=O)O)c(O)c1	> 30 µM
COc1cc2c(Nc3ccc(Br)cc3F)ncnc2cc1OCC1CCN(C)CC1	20 µM
O=C1CN2Cc3c(ccc(Cl)c3Cl)N=C2N1 [ANAGRELIDE]	> 30 µM
COc1cccc(N(C)C(=S)Oc2ccc3c(c2)CCCC3)n1 [LIRANAFTATE]	> 30 µM
Cc1cnc(NC(=O)C2=C(O)c3ccccc3S(=O)(=O)N2C)s1	> 10 µM
N#Cc1ccccc1-c1cc(-c2ccccn2)cn(-c2ccccc2)c1=O	> 30 µM
NS(=O)(=O)c1cc(C(=O)O)cc(N2CCCC2)c1Oc1ccccc1 [PIRETANIDE]	> 30 µM
C#C[C@]1(O)CC[C@H]2[C@@H]3CCC4=CC(=O)CCC4=C3C=C[C@@]21CC	> 30 µM
CCCOC(C(=O)OC1CCN(C)CC1)(c1ccccc1)c1ccccc1	2.5 µM
CCOC(=O)NNc1ccc(N(CC)CC(C)O)nn1 (configuration not stated)	> 30 µM
CNC(=O)c1cc(Oc2ccc(NC(=O)Nc3ccc(Cl)c(C(F)(F)F)c3)c(F)c2)ccn1	> 30 µM
CCN(CC)C(=O)C1(c2ccccc2)CC1CN (configuration not stated)	> 30 µM
COC(=O)N[C@@H](C)CNc1nccc(-c2cn(C(C)C)nc2-c2cc(Cl)cc(NS(C)(=O)=O)c2F)n1	> 30 µM
CCC(=O)O[C@@H](O[P@](=O)(CCCCc1ccccc1)CC(=O)N1C[C@H](C2CCCCC2)C[C@H]1C(=O)O)C(C)C	> 30 µM
